Measured values drawn from PubChem BioAssay (NCI) for this set.

Items are presented alongside their recorded TGI.
- Test system: UACC-257 melanoma
- runDescription: NCI tumour cell line growth inhibition, 48 h
measuredQuantity: TGI

compound	measuredQuantity	resultValue
COC(=O)c1ccc2n1C1CC3CC(CC2C3)C1	TGI	> 100 µM
COC1=CC(=O)C(O)=C(C[C@@]2(C)[C@@H]3CCC[C@H](COC(=O)CCCCCNC(=O)OC(C)(C)C)[C@@]3(C)CC[C@@H]2C)C1=O	TGI	> 10 µM
[Cl-].[Rh+3].c1ccc(-c2ccnc3c2ccc2c(-c4ccccc4)ccnc23)cc1.c1ccc(-c2ccnc3c2ccc2c(-c4ccccc4)ccnc23)cc1.c1ccc(-c2ccnc3c2ccc2c(-c4ccccc4)ccnc23)cc1	TGI	> 100 µM
Cn1c(-c2csc(-c3ccc(Cl)cc3)n2)n[nH]c1=S	TGI	> 100 µM
CN(C)c1ccc(/C=C2\CNC/C(=C\c3ccc(N(C)C)cc3)C2=O)cc1	TGI	> 100 µM
O=C(O)c1cc2ccccc2c(N=Nc2c([N+](=O)[O-])cc([N+](=O)[O-])cc2S(=O)(=O)O)c1O	TGI	> 100 µM
O=C1Oc2ccccc2C(=O)/C1=C/N1C(=O)/C(=C/c2ccc([N+](=O)[O-])cc2)SC1=S	TGI	90.7 µM
N#CCCC(CC#N)N1CCN(CCO)CC1 (stereo unspecified)	TGI	> 100 µM
CC(=O)O[C@H]1[C@@H]2[C@@H]3[C@@H](C[C@H]1C)[C@@H](C)CO[C@@]1(C)CC/C=C(/C)C[C@@H]2O[C@@H]31	TGI	> 100 µM
CCOC(OCC)C(CC)[Se]c1ccccc1[N+](=O)[O-] (stereo unspecified)	TGI	> 94.6 µM
O=C1CN(c2ccc(Cl)cc2)C(=O)CN1CCN1CC(=O)N(c2ccc(Cl)cc2)CC1=O	TGI	> 100 µM
C[C@@]12CC[C@H]3[C@@H]4CCC(=O)N[C@@]4(C)CC[C@@H]3[C@@]1(C)CC[C@H](OC(=O)Cc1ccc(N(CCCl)CCCl)cc1)C2	TGI	55.8 µM
C=C1CC/C=C(/C(=O)O)CC[C@H]2[C@@H]1CC2(C)C	TGI	> 100 µM
CN(C)CCNC(=O)c1cccc2cc3ccccc3nc12	TGI	3.55 µM
OC(c1cccs1)c1cc2ccccc2s1 (stereo unspecified)	TGI	> 10 µM
CC(C)(C)OC(=O)C1=C(C(=O)OC(C)(C)C)SC2(S1)C(C(=O)OC(C)(C)C)=C(C(=O)OC(C)(C)C)Sc1c2ssc1=O	TGI	> 100 µM
